biological target: Dimer of Gag-Pol polyprotein [489-587] (Human immunodeficiency virus 1, UniProt P12497); construct: 489-587; assay: Protease Inhibition Assay; conditions: pH 5.5; 30 °C

{"columns": ["entry_smiles", "IC50"],
 "data": [
  ["CC(C)(C)NC(=O)[C@@H]1C[C@@H]2CCCC[C@@H]2CN1C[C@@H](O)[C@H](Cc1ccccc1)NC(=O)O[C@@H]1CO[C@@H]2CCO[C@@H]21", "> 3 µM"]
]}
